- Tested on: SNB-19 CNS
- assay: NCI tumour cell line growth inhibition, 48 h
observable: GI50

compound	reported result
CC(C)(O)CNc1nc(Nc2ccnc(C(F)(F)F)c2)nc(-c2cccc(C(F)(F)F)n2)n1	34.4 µM
C(=N/N(Cc1ccccc1)Cc1ccccc1)/c1ccccc1	> 100 µM
C#CCNC(=O)[C@H](CC)[C@H]1CC[C@H](C)[C@H]([C@@H](C)[C@H](O)[C@H](C)C(=O)[C@H](CC)C2O[C@]3(C=CC(=O)[C@]4(CC[C@@](C)([C@H]5CC[C@](O)(CC)[C@H](C)O5)O4)O3)[C@H](C)C[C@@H]2C)O1 (stereo partly drawn)	2.36 µM
CC1=C(CC(=O)c2cccc([N+](=O)[O-])c2)C(=O)c2ccccc2C1=O	> 100 µM
O=C(Nc1cccc(-n2cc(-c3ccncc3)c(-c3cc(O)cc(Cl)c3)n2)c1)c1cc(C(F)(F)F)cc(C(F)(F)F)c1	7.03 µM
Cc1cc(C)nc(SC2=C(Nc3cc(Cl)ccc3O)C(=O)N(Cc3ccccc3)C2=O)n1	> 160 µM
c1ccc(-c2nc(N3CCNCC3)c3oc(-c4ccccc4)nc3n2)cc1	1.72 µM
Nc1nc(Nc2ccccc2SSc2ccccc2Nc2nc(N)nc(C(Cl)(Cl)Cl)n2)nc(C(Cl)(Cl)Cl)n1	4.41 µM

----------
- Test system: 786-0 renal
- assay: NCI tumour cell line growth inhibition, 48 h
Decide by TGI: equal to or exceeding 20 µM means TRUE, less means FALSE.

compound	group label
CCOC(=O)C(=CNc1ccc(NC2=NCC(C)S2)cc1)C(=O)OCC (stereo unspecified)	TRUE
CCC(=O)C(CCN1CCC2(CCCc3ccccc32)CC1)(c1ccccc1)c1ccccc1	FALSE
COc1cc2c(cc1OCCCCN1CCN(C(=S)SCCC(C#N)(c3ccccc3)c3ccccc3)CC1)N=C[C@@H]1CCCN1C2=O	FALSE
O=C(/C=C/c1ccc(Oc2cc(C(=O)/C=C/c3ccc(O)cc3)c(O)cc2O)cc1)c1ccc(O)cc1O	FALSE
O=S(=O)(c1cccc(N=C=S)c1)c1cccc(N=C=S)c1	TRUE
COC(=O)C(CCSC)NC(=O)CNC(=O)CSc1nnc(COc2ccc(Cl)cc2)n1-c1ccccc1 (stereo unspecified)	TRUE
CCC1OC2C(CC=C(C)C)=C3OC(C)(O)C(C)(CC)C(OC(C)=O)C3=C3OC(=O)C=C1C32 (stereo unspecified)	TRUE
CC1CN=C(N(Cc2ccccc2)C(=O)Nc2ccc(Cl)c(Cl)c2)S1 (stereo unspecified)	TRUE
CC(=O)OCC(=O)O[C@@H]1[C@H]2[C@@H](OC(=O)c3ccccc3)[C@@H](C)C[C@]2(O)[C@H](OC(C)=O)[C@@]2(C)C(OC(C)=O)[C@]1(OC(C)=O)C[C@H]1C(=O)C(C)(C)C[C@@H]12 (stereo partly specified)	TRUE
COC1C(N)C(OC2C(Oc3cccc4c(O)c5c(=O)oc6ccc(C)c7c(=O)oc(c34)c5c67)OC(C)C(O)C2(C)O)OC(C)C1O (stereo unspecified)	FALSE
CCCCCCCCCCCCC(Br)C(=O)NCC(N)=O (stereo unspecified)	TRUE
CCOC(=O)/C=C/CCO[Si](C)(C)C(C)(C)C	TRUE
O=[N+]([O-])c1cccc2nc3ccccc3c(NCCCNc3c4ccccc4nc4cccc([N+](=O)[O-])c34)c12	FALSE
CC1(C)CC[C@]2(C)CC[C@]3(C)C(=CC[C@@H]4[C@@]5(C)CCC(=O)C(C)(C)[C@@H]5[C@H](O)C[C@]43C)[C@@H]2C1	TRUE
CC(=O)Oc1ccc(/C=C/C(=O)OCCCOC(=O)/C=C/c2ccc(OC(C)=O)c(OC(C)=O)c2)cc1OC(C)=O	TRUE
c1ccc2oc(-c3ccc(-c4nc5ccccc5o4)c4c3CC4)nc2c1	TRUE

Data credit: PubChem BioAssay (NCI)
